# System: MS2 coat protein
# method_description: apparent Kd, MS2 coat protein; higher = weaker binding; RNA-MaP array; FMN 200 µM where present
# assay_conditions: designed as: OFF switch for flavin mononucleotide; no ligand
apparent Kd overview
The reply should be a number in nM, with the unit left off.

Please give the measured apparent Kd for this sequence: `GUCAGUCGAGGAUAUACGAUCGUGCUUCGGCACGUAAGAUCACAUGAGGAUCACCCAUGUAGAAGGCGACUGAC`
32.5

Another sequence to check: `CAGACGUCAGGAUAUCUGAUGUCUAACUUCGGUUAGACAUCAGAGAAGGGACAUGAGGAUCACCCAUGUCUGAA`
25.4

Next record, please: `GGGCACGGAGGAUAUACAUGAGGAUCACCCAUGUGAUUAGGGCAGUACUUGCCGAUCCGUAGAAGGUUGGCCGA`
26.1

Continue with `ACCGUGUCAGGAUAUCCUGCUGUGCGGAAUCUGUAUUCACGGGAGAAGGGACAUGAGGAUCACCCAUGUUUGAG`
19.6

// repeat for `CUCCGGCGUGUAGGAUAUGGAUCCGAUUAGGAUCCAGAAGGACAUGAGGAUCACCCAUGUACAUGUAAACAGUCAUCACCGGAA` and report
7.61

Continue with `GGUCGUCAAGUCAGGAUAUCGUUUGGUCGGUGUGGCGAGAAGGGACAUGAGGAUCACCCAUGUCGUCUCAUCAG`
27

// same read-out, input: `AGUCGGAGCAGAGGAUAUUACAUGAGGAUCACCCAUGUAUAAAGAUCAAGCUGGAAACAGCAAUGUAAGAAGGCUGCUCCGACA`
57.4

----------
# Test system: MS2 coat protein
# method_description: apparent Kd, MS2 coat protein; higher = weaker binding; RNA-MaP array; FMN 200 µM where present
# assay_conditions: ligand present: flavin mononucleotide; designed as: OFF switch for flavin mononucleotide
// apparent Kd lookup, one value per entry

GGUUGGCGAGGAUAUACAUGAGGAUCACCCAUGUGGUCCUGUGGCUGAUCUUGCCUUUGUAGAAGGCGCGGGUC ... 45.3 nM
UUCAGCUCGUGAGGAUAUACAUGUGCUGGAAACAGCACUAUUAAAUUCACAUGAGGAUCACCCAUGUAGAAGGCACGAGCUGAG ... 18.7 nM
GUAGAGUAAGGAUAUUGUGAAUAGGAUAGAAUGGUUAGAAACAAGAAGGUACAUGAGGAUCACCCAUGUAAUGU ... 19.8 nM
AAGAUGUCAGGAUAUGCUGCUCGUCACUUGCGUGAUGAGUAGCAGAAGGGACAUGAGGAUCACCCAUGUAAAGA ... 244 nM

Would you kindly share the measured apparent Kd for `UGUGUGUGGGCAGGAUAUGCAUGAAUAUGUAUGAUGUAGUGUGAUGUAACAUGAGGAUCACCCAUGUAGAAGGGCCGGUGUGUG` ?
116 nM

Same for `CUGUAACAUGAGGAUCACCCAUGUCAGGAUAUCUAUCAUAGCAUCGAAAGAUGCGGGUAGAGAAGGGACUAUCC`
18.2 nM

Next sequence: `AAGAUGCGGGUAGGAUAUGGAGAGAAAGAAAGACCAGAAGGACUGGUCACACAACAUGAGGAUCACCCAUGUGUGUGUUGCGAA`
8.91 nM

----------
# Tested on: MS2 coat protein
# method_description: apparent Kd, MS2 coat protein; higher = weaker binding; RNA-MaP array
# assay_conditions: ligand present: theophylline; designed as: OFF switch for theophylline
Returns one of true or false; true when apparent Kd is >= 90 nM.

CGCGGACCACCUGAUACCAGCGCAGUCAUGCAUGAACCCAACAUGAGGAUCACCCAUGUACGCCCUUGGCAGCAGGGAAAAGUCG ... true
GUCACACAGUAGGAUACCAGCGUGGCUUAUCCCUGAUCGUACAUGAGGAUCACCCAUGUCCGCCCUUGGCAGCCUCCUGCUCGGA ... false

Item `UUACAACUAAUGGAUACCAGCCGCGUGCUAGUGGUAGCAUACAUGAGGAUCACCCAUGUCGGCCCUUGGCAGCCACGCCCAUGCU` with apparent Kd of 90 nM or above?
false

Moving on to the next sequence: `CUACAUGGGCUCGAUACCAGUCAGCUCUCGCGUCUCUCAGACAUGAGGAUCACCCAUGUUGACCCUUGGCAGCGACGAUGUAGGC`
true

Now try `AAUCGCCUGGGUCGCAUCCUUGCUCCGGAUACCAGUCAAUAGUUGGACCCUUGGCAGCCGUAGACAUGAGGAUCACCCAUGUAUA` .
true

And what about the sequence `AGAACCCAAGAGGAUACCAGAACGACAAUCAAAUCUUUUUACAUGAGGAUCACCCAUGUUUUCCCUUGGCAGCCUCAUGCACGAC` ?
false

// same read-out, input: `AUGCACGGGCUAAUCUGCGAUUGGCACGAUACCAGAGAUCAAGACCUCCCUUGGCAGCGUGUCACAUGAGGAUCACCCAUGUGGA`
true
